Target: M351T Bcr-abl (Homo sapiens, UniProt P00519, M351T)
Construct: the other entry of the earlier key: BCR (P11274, Breakpoint cluster region protein)
Experiment: Proliferation of Ba/F3 cells expressing mutant Bcr-abl M351T
Experimental: Ba/F3-p210 cells are plated into 96 well TC plates at a density of 15,000 cells per well. 50 μL of two fold serial dilutions of the test compound (Cmax, is […]) are added to each well (STI571 is included as a positive control). After incubating the cells for 48 hours at 37° C., 5% CO2, 15 μL of MTT (Promega) is added to each well and the cells are incubated for an additional 5 hours. […]
experimental_readout: pIC50
Note: pIC50 values are expressed as the negative base-10 logarithm of concentration in M.

Query block: Dear colleague, I am looking for the recorded pIC50 of the following compound: CCN1CCN(c2cc(Nc3ncc(C(=O)Nc4cc(NC(=O)c5cccc(C(F)(F)F)c5)ccc4C)s3)nc(C)n2)CC1
Result block: 8.30

----------
target: F317L Bcr-abl (Homo sapiens, UniProt P00519, F317L); construct: the other entry of the earlier key: BCR (P11274, Breakpoint cluster region protein); experiment: Proliferation of Ba/F3 cells expressing mutant Bcr-abl F317L
experimental_readout: pIC50
Remember, pIC50 is on a log scale: it is -log10 of the molar concentration.

Query block: Which pIC50 reading was recorded for the compound CCN1CCN(c2cc(Nc3ncc(C(=O)Nc4cc(NC(=O)c5cccc(C(F)(F)F)c5)ccc4C)s3)nc(C)n2)CC1 ?
Result block: 8.30

----------
molecular target: wild type Bcr-abl (Homo sapiens, UniProt P00519); construct: the other entry of the earlier key: BCR (P11274, Breakpoint cluster region protein); test: Proliferation of Ba/F3 cells expressing wild type Bcr-abl
experimental_readout: IC50 (nM)
# unit: nM | format: bare number

smiles_code=CCN1CCN(c2cc(Nc3ncc(C(=O)Nc4cc(NC(=O)c5cc(-n6cnc(C)c6)cc(C(F)(F)F)c5)ccc4C)s3)nc(C)n2)CC1 readout_value=8

Query block: Sample CCN1CCN(c2cc(Nc3ncc(C(=O)Nc4cc(NC(=O)c5cccc(C(F)(F)F)c5)ccc4C)s3)nc(C)n2)CC1 — what was its IC50?
Result block: 5

----------
target: G250E Bcr-abl (Homo sapiens, UniProt P00519, G250E); construct: the other entry of the earlier key: BCR (P11274, Breakpoint cluster region protein); test: Proliferation of Ba/F3 cells expressing mutant Bcr-abl G250E
experimental_readout: IC50 (nM)
Just the number in nM, nothing appended.

Query block: What value of IC50 has been recorded for this entry: CCN1CCN(c2cc(Nc3ncc(C(=O)Nc4cc(NC(=O)c5cccc(C(F)(F)F)c5)ccc4C)s3)nc(C)n2)CC1
Result block: 2290
